meta.source: paper PMC7280082

# Tested on: HIV-1 Y181C mutant strain
# protocol_text: microbe, parasite or virus in culture
# Assay type: cell-based
# recorded_conditions: ratio of EC50 (resistant viral strain)/EC50 (wild-type viral strain)
Below, each entry is listed alongside its reported RF Y181C.
# respond with the number and nothing more

In: Give RF Y181C for Cc1cc(-c2ccoc2)cc(C)c1Oc1nc(NC2CCN(Cc3ccc(S(N)(=O)=O)cc3)CC2)nc2ccsc12 [Compound 13]
Out: 3.1

In: Give RF Y181C for Cc1cc(-c2ccoc2)cc(C)c1Oc1nc(NC2CCN(Cc3ccc(C(N)=O)cc3)CC2)nc2ccsc12 [Compound 14]
Out: 3.1

In: Give RF Y181C for Cc1cc(-c2cccc(C#N)c2)cc(C)c1Oc1nc(NC2CCN(Cc3ccc(S(N)(=O)=O)cc3)CC2)nc2ccsc12 [Compound 27]
Out: 2.4
